Catalogue of TR-FRET-IKZF2 (Normalized to CC-885) readings, one per entry.
- target_entity: CRBN and Helios (IKZF2) (Homo sapiens, UniProt Q96SW2+Q9UKS7)
- Construct: His (N); Strep (N)
- Sequence (Q96SW2 whole entry): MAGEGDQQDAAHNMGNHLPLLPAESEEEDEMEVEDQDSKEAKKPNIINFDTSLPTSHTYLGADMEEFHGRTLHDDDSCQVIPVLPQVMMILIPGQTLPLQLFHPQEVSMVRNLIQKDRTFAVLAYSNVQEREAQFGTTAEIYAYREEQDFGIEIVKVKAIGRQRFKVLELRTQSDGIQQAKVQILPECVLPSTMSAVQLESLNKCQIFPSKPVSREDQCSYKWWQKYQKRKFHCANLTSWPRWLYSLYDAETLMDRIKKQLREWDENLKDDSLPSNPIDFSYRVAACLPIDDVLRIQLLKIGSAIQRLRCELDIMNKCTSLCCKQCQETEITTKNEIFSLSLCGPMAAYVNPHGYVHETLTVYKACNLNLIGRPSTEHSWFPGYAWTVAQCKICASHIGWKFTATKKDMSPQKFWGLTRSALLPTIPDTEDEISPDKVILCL
- Sequence (Q9UKS7 whole entry): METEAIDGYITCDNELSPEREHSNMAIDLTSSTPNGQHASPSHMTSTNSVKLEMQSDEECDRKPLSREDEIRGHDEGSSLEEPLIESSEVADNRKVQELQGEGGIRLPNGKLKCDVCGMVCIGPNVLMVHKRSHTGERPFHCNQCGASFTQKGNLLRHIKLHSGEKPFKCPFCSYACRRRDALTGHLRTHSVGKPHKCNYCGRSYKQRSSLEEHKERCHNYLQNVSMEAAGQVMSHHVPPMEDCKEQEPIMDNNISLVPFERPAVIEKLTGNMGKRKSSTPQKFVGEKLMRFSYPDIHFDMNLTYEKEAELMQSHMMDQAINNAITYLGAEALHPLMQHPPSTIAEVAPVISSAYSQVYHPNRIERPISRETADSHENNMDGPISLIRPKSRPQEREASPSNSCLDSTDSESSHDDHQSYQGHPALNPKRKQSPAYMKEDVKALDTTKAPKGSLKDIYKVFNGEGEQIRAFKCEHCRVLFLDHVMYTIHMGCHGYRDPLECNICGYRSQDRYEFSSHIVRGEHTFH
- experiment_description: TR-FRET dimerization assay (CRBN-IKZF2 ternary complex formation)
- Format: binding
- run_conditions: compound concentration 6.6667E−05; n=1

| compound | TR-FRET-IKZF2 (Normalized to CC-885) |
| --- | --- |
| Cc1ccc(NC(=O)NCCc2cccc(NC3=CC(=O)N(C4CCC(=O)NC4=O)C3=O)c2)cc1Cl (centres unmarked) [Compound 62] | 1.642 |
| CN(C)C(=O)Cc1cccc(NC2=CC(=O)N(C3CCC(=O)NC3=O)C2=O)c1 (centres unmarked) [Compound 35] | 0.520 |
| O=C1CCC(N2C(=O)C=C(Nc3cccc(-c4cc[nH]n4)c3)C2=O)C(=O)N1 (centres unmarked) [Compound 31] | 0.628 |
| Cc1ccc(NC(=O)NC(C)c2cccc(NC3=CC(=O)N(C4CCC(=O)NC4=O)C3=O)c2)cc1Cl (centres unmarked) [Compound 54] | 1.729 |
| Cc1ccc(NC(=O)/C=C/c2cccc(NC3=CC(=O)N(C4CCC(=O)NC4=O)C3=O)c2)cc1Cl (centres unmarked) [Compound 57] | 0.530 |
| Cc1ccc(NC(=O)CC(C)c2cccc(NC3=CC(=O)N(C4CCC(=O)NC4=O)C3=O)c2)cc1Cl (centres unmarked) [Compound 137] | 1.665 |
| Cc1ccc(NCc2cccc(NC3=CC(=O)N(C4CCC(=O)NC4=O)C3=O)c2)cc1Cl (centres unmarked) [Compound 63] | 0.703 |
| COC(=O)CCNC1=CC(=O)N(C2CCC(=O)NC2=O)C1=O (centres unmarked) [Compound 14] | 0.046 |
